Overview of reported pKi across a group of compounds:
Target: ENPP1 (Homo sapiens, UniProt P22413)
Sequence (P22413 whole entry): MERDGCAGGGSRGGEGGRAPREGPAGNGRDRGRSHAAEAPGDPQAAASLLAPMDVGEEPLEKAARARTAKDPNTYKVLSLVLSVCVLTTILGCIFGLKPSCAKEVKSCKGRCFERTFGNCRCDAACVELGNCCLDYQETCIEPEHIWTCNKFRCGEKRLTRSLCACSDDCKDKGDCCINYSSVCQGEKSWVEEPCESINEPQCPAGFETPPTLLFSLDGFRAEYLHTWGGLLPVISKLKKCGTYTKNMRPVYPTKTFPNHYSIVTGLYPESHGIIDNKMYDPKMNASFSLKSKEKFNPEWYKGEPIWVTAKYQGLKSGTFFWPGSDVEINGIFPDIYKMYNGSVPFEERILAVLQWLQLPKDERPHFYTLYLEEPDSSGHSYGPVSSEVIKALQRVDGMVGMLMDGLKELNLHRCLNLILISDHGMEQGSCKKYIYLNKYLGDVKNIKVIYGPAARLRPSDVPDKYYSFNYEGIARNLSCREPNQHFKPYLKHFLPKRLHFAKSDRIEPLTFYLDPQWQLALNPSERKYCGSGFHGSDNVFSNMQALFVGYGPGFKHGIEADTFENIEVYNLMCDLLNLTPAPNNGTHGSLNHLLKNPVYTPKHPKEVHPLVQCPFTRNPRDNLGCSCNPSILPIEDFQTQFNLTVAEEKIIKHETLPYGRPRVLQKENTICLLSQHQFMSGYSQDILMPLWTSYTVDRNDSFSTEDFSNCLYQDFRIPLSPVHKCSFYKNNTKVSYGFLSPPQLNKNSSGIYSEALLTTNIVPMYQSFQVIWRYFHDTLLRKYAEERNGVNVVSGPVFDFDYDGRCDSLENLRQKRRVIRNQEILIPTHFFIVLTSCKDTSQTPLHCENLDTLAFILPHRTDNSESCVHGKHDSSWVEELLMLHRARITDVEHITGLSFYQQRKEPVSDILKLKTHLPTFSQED
Test: ENPP1 enzyme assay with AMP-pNP substrate (hydrolysis of ATP analog)
Assay type: biochemical
pKi: −log10 of the molar value.
assay endpoint: pKi

[[record]]
compound = "COc1ccc2c(Oc3ccc(NS(N)(=O)=O)cc3)ccnc2c1 [Example 54]"
assay_endpoint = "pKi"
test_value = "6.00 to 7.00"

[[record]]
compound = "NS(=O)(=O)NCCC1CCN(c2ccnc(Nc3ccccn3)n2)CC1 [Example 11]"
assay_endpoint = "pKi"
test_value = "< 6.00"

[[record]]
compound = "CCN(C)S(=O)(=O)NCCC1CCN(c2ncnc3cc(OC)c(OC)cc23)CC1 [Example 42]"
assay_endpoint = "pKi"
test_value = "< 6.00"

[[record]]
compound = "COc1cc2ncnc(N3CCN(CCNS(N)(=O)=O)CC3)c2cc1OC [Example 40]"
assay_endpoint = "pKi"
test_value = "6.00 to 7.00"

[[record]]
compound = "COc1cc2ncnc(N3CCN(C(=O)CNS(N)(=O)=O)CC3)c2cc1OC [Example 52]"
assay_endpoint = "pKi"
test_value = "6.00 to 7.00"

[[record]]
compound = "COc1cc2nc(-c3cccnc3)nc(N3CCC(CCNS(N)(=O)=O)CC3)c2cc1OC [Example 5]"
assay_endpoint = "pKi"
test_value = "< 6.00"

